system under test: human CA-XII (Homo sapiens, UniProt O43570)
Construct: purchased Creative BioMart CA12-261H
Sequence (O43570 25-354): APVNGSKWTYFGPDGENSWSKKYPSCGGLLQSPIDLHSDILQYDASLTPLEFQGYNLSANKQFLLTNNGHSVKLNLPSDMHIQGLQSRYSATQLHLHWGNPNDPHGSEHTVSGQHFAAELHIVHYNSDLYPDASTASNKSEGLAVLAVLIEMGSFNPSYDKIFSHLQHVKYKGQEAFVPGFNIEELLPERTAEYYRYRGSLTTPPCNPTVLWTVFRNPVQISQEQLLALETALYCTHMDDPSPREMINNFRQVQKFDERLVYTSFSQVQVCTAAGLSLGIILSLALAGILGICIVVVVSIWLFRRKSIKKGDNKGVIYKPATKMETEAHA
measurement notes: Surface Plasmon Resonance (SPR) binding kinetics to recombinant human CA-XII (Biacore 8K, single-cycle kinetics, 1:1 binding model)
test parameters: Chelated Metal: Lu-175, 25° C., pH 7.4, read-out: CAXII KD
Task for the reader: assign each of the following compounds its reported Kd.

CC(CCC(=O)N[C@@H](CC(=O)N[C@@H](CC(=O)N[C@@H](CCCCn1cc(C23CCC(C(=O)Nc4nnc(S(N)(=O)=O)s4)(CC2)C3)nn1)C(=O)NCC1(C(=O)O)CN(C(=O)CN2CCN(CC(=O)O)CCN(CC(=O)O)CCN(CC(=O)O)CC2)C1)C(=O)O)C(=O)O)(c1ccc(O)cc1)c1ccc(O)cc1.[Lu+3] | < 1 nM
CC(CCC(=O)N[C@@H](CC(=O)N[C@@H](CCC(=O)N1CCN(C(=O)CN2CCN(CC(=O)O)CCN(CC(=O)O)CCN(CC(=O)O)CC2)C[C@@H]1Cn1cc(C23CC(C(=O)Nc4nnc(S(N)(=O)=O)s4)(C2)C3)nn1)C(=O)O)C(=O)O)(c1ccc(O)cc1)c1ccc(O)cc1.[Lu+3] | < 1 nM
CC(CCC(=O)N[C@@H](CC(=O)N[C@@H](CC(=O)N1CCN(C(=O)CN2CCN(CC(=O)O)CCN(CC(=O)O)CCN(CC(=O)O)CC2)C[C@H]1C(=O)NCCn1cc(C23CCC(C(=O)Nc4nnc(S(N)(=O)=O)s4)(CC2)C3)nn1)C(=O)O)C(=O)O)(c1ccc(O)cc1)c1ccc(O)cc1.[Lu+3] | < 1 nM

Field: Kd. Fill in for each record below.
1. CC(CCCC(=O)N1CCC(C(=O)O)(C(=O)NCC(=O)N[C@@H](CCCCn2cc(C34CCC(C(=O)Nc5nnc(S(N)(=O)=O)s5)(CC3)CC4)nn2)C(=O)NCCOCCOCCNC(=O)CN2CCN(CC(=O)O)CCN(CC(=O)O)CCN(CC(=O)O)CC2)CC1)(c1ccc(O)cc1)c1ccc(O)cc1.[Lu+3]
2. CC(CCC(=O)N[C@@H](CC(=O)N[C@@H](CCC(=O)NC1(C(=O)NCCOCCOCCNC(=O)CN2CCN(CC(=O)O)CCN(CC(=O)O)CCN(CC(=O)O)CC2)CN(C(=O)Cn2cc(CCCC(=O)Nc3nnc(S(N)(=O)=O)s3)nn2)C1)C(=O)O)C(=O)O)(c1ccc(O)cc1)c1ccc(O)cc1.[Lu+3]

Completion:
1. 2.5 to 10 nM
2. 2.5 to 10 nM

* * *

system under test: human CA-IX (Homo sapiens)
Construct: purchased Acro CA9-H82E3
measurement notes: Surface Plasmon Resonance (SPR) binding kinetics to recombinant human CA-IX (Biacore 8K, single-cycle kinetics, 1:1 binding model)
test parameters: Chelated Metal: Lu-175; SPR, 25° C., pH 7.4; read-out: CAIX KD
Task for the reader: assign each of the following compounds its reported Kd.

CC(CCCC(=O)N1CCC(C(=O)O)(C(=O)NCC(=O)N[C@@H](CCCCn2cc(C34CC(C(=O)Nc5nnc(S(N)(=O)=O)s5)(C3)C4)nn2)C(=O)NCCOCCOCCNC(=O)CN2CCN(CC(=O)O)CCN(CC(=O)O)CCN(CC(=O)O)CC2)CC1)(c1ccc(O)cc1)c1ccc(O)cc1.[Lu+3] | < 1 nM
CC(CCC(=O)N[C@@H](CC(=O)N[C@@H](CC(=O)NC1(CCCCn2cc(CCCCC(=O)Nc3nnc(S(N)(=O)=O)s3)nn2)CCN(C(=O)OCCOCCNC(=O)CN2CCN(CC(=O)O)CCN(CC(=O)O)CCN(CC(=O)O)CC2)CC1)C(=O)O)C(=O)O)(c1ccc(O)cc1)c1ccc(O)cc1.[Lu+3] | 1 to 2.5 nM
CC(CCC(=O)N[C@@H](CC(=O)N[C@@H](CC(=O)N[C@@H](CCCCN1CCN(c2ccc(C(=O)Nc3nnc(S(N)(=O)=O)s3)cc2)CC1)C(=O)NCCOCCOCCNC(=O)CN1CCN(CC(=O)O)CCN(CC(=O)O)CCN(CC(=O)O)CC1)C(=O)O)C(=O)O)(c1ccc(O)cc1)c1ccc(O)cc1.[Lu+3] | 1 to 2.5 nM

Prompt: # Kd lookup, item NS(=O)(=O)c1nnc(NC(=O)C23CC(c4cn(CCNC(=O)[C@@H]5CN(C(=O)CN6CCN(CC(=O)O)CCN(CC(=O)O)CCN(CC(=O)O)CC6)CCN5C(=O)CNC(=O)C5(C(=O)O)CCN(C(=O)CCCCc6ccc(O)cc6)CC5)nn4)(C2)C3)s1.[Lu+3]
Completion: 1 to 2.5 nM

* * *

system under test: human CA-IX (Homo sapiens, UniProt Q16790)
Construct: purchased Acro CA9-H82E3
measurement notes: Surface Plasmon Resonance (SPR) binding kinetics to recombinant human CA-IX (Biacore 8K, single-cycle kinetics, 1:1 binding model)
test parameters: Chelated Metal: Lu-175; SPR, 25° C., pH 7.4; read-out: CAIX KD
Task for the reader: assign each of the following molecules its reported Kd.

Observe how each entry below is paired with its result.
CC(CCC(=O)N[C@@H](CC(=O)N[C@@H](CC(=O)N1CCN(C(=O)CN2CCN(CC(=O)O)CCN(CC(=O)O)CCN(CC(=O)O)CC2)C[C@H]1C(=O)NCCn1cc(C23CC(C(=O)Nc4nnc(S(N)(=O)=O)s4)(C2)C3)nn1)C(=O)O)C(N)=O)(c1ccc(O)cc1)c1ccc(O)cc1.[Lu+3] | < 1 nM
CC(CCCC(=O)N1CCC(C(=O)O)(C(=O)NCC(=O)NC2(C(=O)NCCn3cc(C45CC(C(=O)Nc6nnc(S(N)(=O)=O)s6)(C4)C5)nn3)CCN(C(=O)CN3CCN(CC(=O)O)CCN(CC(=O)O)CCN(CC(=O)O)CC3)CC2)CC1)(c1ccc(O)cc1)c1ccc(O)cc1.[Lu+3] (single isomer, unassigned) [Compound 117.4] | 1 to 2.5 nM
CC(CCOC(=O)N1CCC(C(N)=O)(C(=O)NCC(=O)N2CCN(C(=O)CN3CCN(CC(=O)O)CCN(CC(=O)O)CCN(CC(=O)O)CC3)C[C@H]2C(=O)NCCn2cc(C34CC(C(=O)Nc5nnc(S(N)(=O)=O)s5)(C3)C4)nn2)CC1)(c1ccc(O)cc1)c1ccc(O)cc1.[Lu+3] | 1 to 2.5 nM
CNC(=O)C1(C(=O)NCC(=O)N2CCN(C(=O)CN3CCN(CC(=O)O)CCN(CC(=O)O)CCN(CC(=O)O)CC3)C[C@@H]2C(=O)NCCn2cc(C34CC(C(=O)Nc5nnc(S(N)(=O)=O)s5)(C3)C4)nn2)CCN(C(=O)CCCC(C)(c2ccc(O)cc2)c2ccc(O)cc2)CC1.[Lu+3] | < 1 nM

Field: Kd. Fill in for each record below.
1. NS(=O)(=O)c1nnc(NC(=O)C23CC(c4cn(CCNC(=O)[C@@H]5CN(C(=O)CN6CCN(CC(=O)O)CCN(CC(=O)O)CCN(CC(=O)O)CC6)CCN5C(=O)CNC(=O)C5(C(=O)O)CCN(C(=O)c6cc(C(F)(F)F)n[nH]6)CC5)nn4)(C2)C3)s1.[Lu+3]
2. NS(=O)(=O)c1nnc(NC(=O)C23CC(c4cn(CCNC(=O)[C@@H]5CN(C(=O)CN6CCN(CC(=O)O)CCN(CC(=O)O)CCN(CC(=O)O)CC6)CCN5C(=O)C[C@H](NC(=O)C[C@H](NCc5ccc(C6CC6)cc5)C(=O)O)C(=O)O)nn4)(C2)C3)s1.[Lu+3]

Completion:
1. 2.5 to 10 nM
2. < 1 nM

Field: Kd. Fill in for each record below.
1. N[C@@H](CC(=O)N[C@@H](CC(=O)N1CCN(C(=O)CCOCCOCCOCCOCCN(CCOCCOCCOCCOCCC(=O)N2CCN(C(=O)C[C@H](NC(=O)C[C@H](N)C(=O)O)C(=O)O)[C@H](C(=O)NCCn3cc(C45CC(C(=O)Nc6nnc(S(N)(=O)=O)s6)(C4)C5)nn3)C2)C(=O)CNC(=O)CN2CCN(CC(=O)O)CCN(CC(=O)O)CCN(CC(=O)O)CC2)C[C@H]1C(=O)NCCn1cc(C23CC(C(=O)Nc4nnc(S(N)(=O)=O)s4)(C2)C3)nn1)C(=O)O)C(=O)O.[Lu+3]
2. CC(CCCC(=O)N1CCC(C(=O)O)(C(=O)NCC(=O)N[C@@H](CCCCn2cc(C34CCC(C(=O)Nc5nnc(S(N)(=O)=O)s5)(CC3)CC4)nn2)C(=O)NCCOCCOCCNC(=O)CN2CCN(CC(=O)O)CCN(CC(=O)O)CCN(CC(=O)O)CC2)CC1)(c1ccc(O)cc1)c1ccc(O)cc1.[Lu+3]

Completion:
1: < 1 nM; 2: < 1 nM

* * *

system under test: human CA-IX (Homo sapiens)
Construct: purchased Acro CA9-H82E3
measurement notes: Surface Plasmon Resonance (SPR) binding kinetics to recombinant human CA-IX (Biacore 8K, single-cycle kinetics, 1:1 binding model)
test parameters: Chelated Metal: Lu-175; SPR, 25° C., pH 7.4; read-out: CAIX KD
Task for the reader: assign each of the following compounds its reported Kd.

Observe how each entry below is paired with its result.
Cc1c(C(F)(F)F)n[nH]c1C(=O)N[C@@H](CC(=O)N[C@@H](CCC(=O)N1CCN(C(=O)CN2CCN(CC(=O)O)CCN(CC(=O)O)CCN(CC(=O)O)CC2)C[C@H]1C(=O)NCCn1cc(C23CCC(C(=O)Nc4nnc(S(N)(=O)=O)s4)(CC2)CC3)nn1)C(=O)O)C(=O)O.[Lu+3] | < 1 nM
CC(CCC(=O)N[C@@H](CC(=O)N[C@@H](CC(=O)N1CCN(C(=O)CN2CCN(CC(=O)O)CCN(CC(=O)O)CCN(CC(=O)O)CC2)C[C@H]1C(=O)NCCn1cc(-c2ccc(C(=O)Nc3nnc(S(N)(=O)=O)s3)c(Cl)c2)nn1)C(=O)O)C(=O)O)(c1ccc(O)cc1)c1ccc(O)cc1.[Lu+3] | < 1 nM
CC(CCC(=O)N[C@@H](CCC(=O)N1CCN(C(=O)CN2CCN(CC(=O)O)CCN(CC(=O)O)CCN(CC(=O)O)CC2)C[C@@H]1C(=O)NCCn1cc(C23CC(C(=O)Nc4nnc(S(N)(=O)=O)s4)(C2)C3)nn1)C(=O)O)(c1ccc(O)cc1)c1ccc(O)cc1.[Lu+3] | < 1 nM
NS(=O)(=O)c1nnc(NC(=O)C23CCC(c4cn(CCNC(=O)[C@@H]5CN(C(=O)CN6CCN(CC(=O)O)CCN(CC(=O)O)CCN(CC(=O)O)CC6)CCN5C(=O)CC[C@H](NC(=O)C[C@H](NC(=O)c5ccc(C6CC6)nc5)C(=O)O)C(=O)O)nn4)(CC2)CC3)s1.[Lu+3] | < 1 nM

Proceeding to the next compound to report its Kd.
Prompt: Missing value: Kd, human CA-IX (Homo sapiens), entry NS(=O)(=O)c1nnc(NC(=O)C23CC(c4cn(CCNC(=O)[C@H]5CN(C(=O)CN6CCN(CC(=O)O)CCN(CC(=O)O)CCN(CC(=O)O)CC6)CCN5C(=O)CC[C@H](NC(=O)Cc5n[nH]c6ccccc56)C(=O)O)nn4)(C2)C3)s1.[Lu+3] . Fill in?
Completion: 1 to 2.5 nM
